Here's a roundup of pIC50 values tested on Matrix metalloproteinase-9 (Homo sapiens, UniProt P14780), taken from various published works.
// returns pIC50 (minus log10 of molar concentration), number only

What value of pIC50 has been reported for the following compound? O=C(O)[C@@H]1[C@@H](Cn2nnc3ccc(C(F)(F)F)cc3c2=O)CC[C@H]1C(=O)c1ccc(OCC2CCCCC2)cc1 (single isomer, unassigned)
7.29

Also CCCCCOc1ccc(C(=O)[C@H]2CC[C@@H](Cn3nnc4ccc(C)cc4c3=O)[C@@H]2C(=O)O)cc1 (racemic) , if possible.
7.03

Entry to check: O=C1C(CS(=O)(=O)c2ccc(Oc3ccccc3)cc2)NCCCN1O (stereo not shown)
7.67

Subsequent entry: O=C(CC(CCn1nnc2ccccc2c1=O)C(=O)O)c1cc2cc(OCCc3ccc(Cl)cc3)ccc2o1 (racemic)
4.62

Further, for Cc1ccc(C#Cc2ccc(S(=O)(=O)N(CCN3CCOCC3)C3CC=CCN(O)C3=O)s2)cc1 (stereo not shown) ?
9.22

Also, `CC#CCOc1ccc(S(=O)(=O)CC2(C(=O)NO)CCN(CC#CCO)CC2)cc1` please.
5.45

Try CCCCCCOc1ccc(C(=O)[C@@H]2CC[C@H](Cn3nnc4ccc(C)cc4c3=O)[C@H]2C(=O)O)cc1 (single isomer, unassigned) next.
7.24

Field entry: `O=C(O)c1c[nH]c(CN(Cc2ccc(F)cc2)Cc2ccc(OC(c3ccccc3)c3ccccc3)cc2)n1`
5.10

Here is the next compound: `COc1ccc(Oc2ccc(S(=O)(=O)N(C)c3cccn(O)c3=O)cc2)cc1`
9.06

Another compound to check: `COc1ccc(Oc2ccc(N(Cc3cccn(O)c3=O)S(C)(=O)=O)cc2)cc1`
7.83

And then O=C(CC(CCn1nnc2ccccc2c1=O)C(=O)O)c1noc2cc(OCCc3ccccc3)ccc12 (racemic) , what is it?
6.12

Same question, `O=c1c(COc2ccc(-c3ccc(Br)cc3)cc2)cccn1O` this time
5.15

Then this compound: `COc1ccc(-c2ccc(S(=O)(=O)N3CC[C@@H](NC(=O)c4c[nH]c5ccccc45)C[C@@H]3C(=O)NO)cc2)cc1`
7.68

Can you check O=C(CC(CCn1nnc2ccccc2c1=O)C(=O)O)c1cc2cc(OCCc3ccccc3)ccc2o1 (single isomer, unassigned; (+)) next?
5.25

Another compound to look at: `O=C(N[C@@H]1CCN(S(=O)(=O)c2ccc(-c3ccc(O)cc3)cc2)[C@@H](C(=O)NO)C1)c1ccccc1`
6.05

Same question for `CCOC(=O)c1csc(CN(Cc2ccc(OCc3cccnc3)cc2)Cc2cccnc2)n1` please.
3.64

Thanks! And COc1ccc(CCN(CC(=O)N2C(CC(=O)NO)CN(Cc3cc(OC)cc(OC)c3)C(=O)[C@@H]2C)S(=O)(=O)c2ccc(OC)cc2)cc1 (stereo partly shown) ?
6.82

Would you kindly repeat that for O=C(CC(CCn1nnc2ccccc2c1=O)C(=O)O)c1cc2ccc(OCC3CC3)cc2s1 (single isomer, unassigned; (+)) ?
6.23
